The measured values listed here are drawn from the supplement of paper PMC11208160.

Documented recombinant UMI read abundance (log10) across a set of sequences
PROCEDURE_TEXT: recombinant UMI read abundance after kanamycin selection (control-corrected) (log10(CPM+1)); higher = more efficient recombination; extreme values may be limits of the assay; sequences stand for … in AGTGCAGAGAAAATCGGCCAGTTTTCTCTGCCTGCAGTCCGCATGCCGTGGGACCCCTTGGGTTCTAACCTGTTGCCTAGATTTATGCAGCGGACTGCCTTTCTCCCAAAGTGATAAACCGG…AGGTTGGTTTCACT; site = the 11-nt donor;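 also: IS621 bridge recombinase in Escherichia coli cells against a fixed T5 target plasmid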
API note: the answer field is a bare number with no unit suffix.

| CHAIN_SEQUENCE | recombinant UMI read abundance (log10) |
| --- | --- |
| CACCGATCATGGACCGGTTTTCCCGGTAATCCGTATTTGGC (site CACCGATCTGC) | 3.71 |
| TCATACTCATGGACCGGTTTTCCCGGTAATCCGTATTTGCA (site TCGTACTCTTG) | 2.35 |
| TACTGGACATGGACCGGTTTTCCCGGTAATCCGTATTTGCT (site TACTAGACTAG) | 0.948 |
| ACCAAGACATGGACCGGTTTTCCCGGTAATCCGTATTTGGG (site ACCCAGACTCC) | 0.0318 |

-- ask Param item = TGAAGTCCATGGACCGGTTTTCCCGGTAATCCGTATTTGTA (site TCAAGTCCTTA) ; retrieve measured recombinant UMI read abundance (log10).
-- reply 1.44

-- ask What do you have for GAATGGACATGGACCGGTTTTCCCGGTAATCCGTATTTGAC (site GAGTGGACTGT) ?
-- reply 0

* * *

PROCEDURE_TEXT: recombinant UMI read abundance after kanamycin selection (control-corrected) (log10(CPM+1)); higher = more efficient recombination; extreme values may be limits of the assay; sequences stand for … in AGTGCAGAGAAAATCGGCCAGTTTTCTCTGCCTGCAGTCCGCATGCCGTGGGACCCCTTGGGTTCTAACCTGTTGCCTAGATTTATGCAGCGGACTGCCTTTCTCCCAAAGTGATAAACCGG…AGGTTGGTTTCACT; site = the 11-nt donor
Would you mind sorting the entries by recombinant UMI read abundance (log10) according to these classes? LOW (below 0.009), MID (0.009 to below 2), HIGH (2 or more)

Here are 4 sequences together with their reported answers.
| CHAIN_SEQUENCE | CLASSIFICATION |
| --- | --- |
| TCGACTCCATGGACCGGTTTTCCCGGTAATCCGTATTTGCC (site TCGACTCCTGG) | LOW |
| GTGGTGGCATGGACCGGTTTTCCCGGTAATCCGTATTTGTG (site GTGGAGGCTCA) | MID |
| CATTCCTCATGGACCGGTTTTCCCGGTAATCCGTATTTGCC (site CAGTCCTCTGG) | LOW |
| CACTGATCATGGACCGGTTTTCCCGGTAATCCGTATTTGCT (site CACTGATCTAG) | HIGH |

-- ask Which bin should I file TACGTGACATGGACCGGTTTTCCCGGTAATCCGTATTTGCT (site TACCTGACTAG) under?
-- reply MID

-- ask Repeat for the following sequence: CACGCCTCATGGACCGGTTTTCCCGGTAATCCGTATTTGAA (site CACGCCTCTTT)
-- reply HIGH

-- ask Another sequence to look at: AGGAAGACATGGACCGGTTTTCCCGGTAATCCGTATTTGCC (site AGGAAGACTCG)
-- reply MID
